// data source = patent US4843062A

# TARGET ENTITY: aldose reductase (Bos taurus, UniProt P16116)
# Construct: preparation of the enzyme from bovine lens; from tissue; host or cells: bovine lens
# PROTOCOL NOTES: Aldose reductase inhibition in vitro (enzyme preparation from bovine lens, modified Hayman and Kinoshita procedure)
# Assay type: biochemical
# EXPERIMENTAL CONDITIONS: 10^-7 M
Class (required): determined from inhibition at 0.1 µM; valid ranges are bin A = under 20%, bin B = from 20% up to 60%, bin C = 60% and over

MOLECULE	TARGET ENTITY	CLASS NAME
COc1ccc2c(C(=O)N(CC(=O)O)C(=O)OCc3ccccc3)cccc2c1C(F)(F)F	aldose reductase (Bos taurus, UniProt P16116)	bin C
COc1ccc2c(C(=O)N(CC(=O)O)C(=O)OCc3ccc(Cl)c([N+](=O)[O-])c3)cccc2c1C(F)(F)F	aldose reductase (Bos taurus, UniProt P16116)	bin B
COc1ccc2c(C(=O)N(CC(=O)O)C(=O)c3ccccc3)cccc2c1C(F)(F)F	aldose reductase (Bos taurus, UniProt P16116)	bin A
COC(=O)N(CC(=O)O)C(=O)c1cccc2c(C(F)(F)F)c(OC)ccc12	aldose reductase (Bos taurus, UniProt P16116)	bin C
COC(=O)N(CC(=O)O)C(=S)c1cccc2c(C(F)(F)F)c(OC)ccc12 [Example 18a]	aldose reductase (Bos taurus, UniProt P16116)	bin B
O=C(O)CN(C(=O)OCc1ccccc1)C(=O)c1cccc2c(Br)cccc12	aldose reductase (Bos taurus, UniProt P16116)	bin A
O=C(O)CN(C(=O)c1ccccc1)C(=O)c1cccc2c(Br)cccc12	aldose reductase (Bos taurus, UniProt P16116)	bin A
COc1ccc2c(C(=O)N(C=O)CC(=O)O)cccc2c1C(F)(F)F	aldose reductase (Bos taurus, UniProt P16116)	bin C
O=CN(CC(=O)O)C(=O)c1cccc2c(Br)cccc12	aldose reductase (Bos taurus, UniProt P16116)	bin B
CCOC(=O)N(CC(=O)O)C(=O)c1cccc2c(C(F)(F)F)c(OC)ccc12	aldose reductase (Bos taurus, UniProt P16116)	bin B
COC(=O)N(CC(=O)O)C(=O)c1cccc2c(Br)cccc12	aldose reductase (Bos taurus, UniProt P16116)	bin A
COc1ccc2c(C(=O)N(CC(=O)O)C(=O)OCC(C)(C)C)cccc2c1C(F)(F)F	aldose reductase (Bos taurus, UniProt P16116)	bin A
CC(=O)N(CC(=O)O)C(=O)c1cccc2c(Br)cccc12	aldose reductase (Bos taurus, UniProt P16116)	bin A
CCCOC(=O)N(CC(=O)O)C(=O)c1cccc2c(C(F)(F)F)c(OC)ccc12	aldose reductase (Bos taurus, UniProt P16116)	bin C
